# Test system: EKVX NSCLC
# ASSAY NAME: NCI tumour cell line growth inhibition, 48 h
// reported TGI per item

{"columns": ["COMPOUND", "TGI"],
 "data": [
  ["COC(=O)C1=C(c2ccc(OC)c(OC)c2)OC(c2ccc(OC)c(OC)c2)C1 (stereo not given)", "> 100 µM"],
  ["Cc1c2c(c(C)n1-c1ccccc1)C(=O)N(CCCCN1CCN(c3ccccc3)CC1)C2=O", "65.7 µM"],
  ["CCOc1ccc2nc(-c3ccc(O)cc3)sc2c1", "55.2 µM"],
  ["CCN(CC)CCOCC[C@H]1CC[C@H]2[C@@H]3[C@H](C)Cc4cc(OS(N)(=O)=O)ccc4[C@H]3CC[C@]12C", "3.65 µM"],
  ["COc1cc2c[n+](C)c3c4cc(OC)c(OC)cc4c(OC)cc3c2cc1OC", "> 100 µM"]
]}

###

# Test system: NCI-H522 lung
# ASSAY NAME: NCI tumour cell line growth inhibition, 48 h

{"columns": ["COMPOUND", "SYSTEM TESTED", "TGI"],
 "data": [
  ["COc1cc(C2SCC(=O)N2c2cc(Cl)c(Cl)cc2Cl)cc(OC)c1OC (stereo unspecified)", "NCI-H522 lung", "> 100 µM"],
  ["O=C[C@@H](CO)O[C@H](C=O)c1c[nH]c(=O)[nH]c1=O", "NCI-H522 lung", "282 µM"],
  ["CCOC(=O)CN1C(=O)c2c(c(C)n(-c3ccccc3)c2C)C1=O", "NCI-H522 lung", "> 100 µM"],
  ["COc1cc(-c2cn(S(=O)(=O)c3ccc(C)cc3)c3ccccc23)nc(-c2cn(S(=O)(=O)c3ccc(C)cc3)c3ccccc23)n1", "NCI-H522 lung", "0.506 µM"],
  ["COc1cc2c(/C=C3/C(=O)N(C)c4ccccc43)c(Cl)[nH]c2cc1C", "NCI-H522 lung", "0.518 µM"],
  ["C=CCN1CCC(OC(=O)C(O)(C#CC)C2CCCC2)CC1 (stereo unspecified)", "NCI-H522 lung", "> 100 µM"],
  ["CCS(=O)(=O)N1CCC(C(C)n2c(C)c(C(=O)NCc3c(OC)cc(C)[nH]c3=O)c3ccccc32)CC1 (stereo unspecified)", "NCI-H522 lung", "> 100 µM"],
  ["COc1cc(C=O)ccc1Oc1nnnn1-c1ccccc1", "NCI-H522 lung", "> 100 µM"],
  ["F", "NCI-H522 lung", "> 6870 µM"],
  ["CCc1ccc(N=Cc2cc(OC)c(OC)c(OC)c2)cc1", "NCI-H522 lung", "> 100 µM"],
  ["CC(NS(=O)(=O)c1ccc([N+](=O)[O-])cc1)C(=O)O (stereo unspecified)", "NCI-H522 lung", "> 100 µM"]
]}

###

// reported TGI per item
# Test system: MALME-3M melanoma
# ASSAY NAME: NCI tumour cell line growth inhibition, 48 h

{"columns": ["COMPOUND", "TGI"],
 "data": [
  ["CC(=O)[C@@H]1[C@@H](OC(=O)CCC(C)COC2OC(CO)C(O)C(O)C2O)C[C@H]2[C@@H]3CC=C4C[C@@H](OC5OC(CO)C(OC6OC(C)C(O)C(O)C6O)C(O)C5OC5OC(C)C(O)C(O)C5O)CC[C@]4(C)[C@H]3CC[C@]12C (stereo partly drawn)", "> 100 µM"],
  ["COc1ccccc1/C=C/C1=NN(c2cccc(S(=O)(=O)O)c2)C2(C1)SCC(=O)N2c1nc2ccccc2s1 (stereo not drawn)", "> 100 µM"],
  ["COC1=C2CC(C)CC(OC)C(O)C(C)/C=C(\\C)C(OC(N)=O)C(OC)/C=C\\C=C(/C)C(=O)NC(=C(C=NC(C)(C)C)C1=O)C2=O (stereo not drawn)", "5.23 µM"]
]}
